Organism: Rattus norvegicus
Experiment: Open TG-GATES - Regimen: Single
Type: toxicity, organism-based, Sprague-Dawley
Design: regimen Single, gender Male, age 6 weeks
Settings: in vivo, po, 0 mg/kg, 24 h, tissue Blood, route gavage, dose level Control
Mark rule met only for Mono values smaller than 3%; exact matches and larger values are rule not met.

CC(CCc1ccccc1)NCC(O)c1ccc(O)c(C(N)=O)c1 (configuration not stated) [LABETALOL] :: rule met

Record CC(=O)N1CCN(c2ccc(OCC3COC(Cn4ccnc4)(c4ccc(Cl)cc4Cl)O3)cc2)CC1 (configuration not stated) [KETOCONAZOLE] : is its Mono strictly below 3%? rule met

Take the compound CCN(CC)N=O [N-NITROSODIETHYLAMINE] and say whether its Mono is less than 3%. rule met

Would you kindly verify if Mono of CC[C@@H](CO)NCCN[C@@H](CC)CO [ETHAMBUTOL] is strictly less than 3%? rule met

Strictly below 3%: is that where Mono of CC(C)Cc1ccc(C(C)C(=O)O)cc1 (configuration not stated) [IBUPROFEN] sits? rule not met

Bench note: check whether O=C(O)COc1nn(Cc2ccccc2)c2ccccc12 [BENDAZAC] shows Mono below 3% rule not met

###

Organism: Rattus norvegicus
Assay: Open TG-GATES - Regimen: Single
Assay type: toxicity, organism-based, Sprague-Dawley
Parameters: regimen Single, gender Male, age 6 weeks
Conditions: in vivo, po, 0 mg/kg, 6 h, tissue Plasma, route gavage, dose level Control
Please provide measured Na for the entries that follow.
One number for each entry, in meq/L.

O=C(O)COc1nn(Cc2ccccc2)c2ccccc12 [BENDAZAC] :: 140.8
CC(CCc1ccccc1)NCC(O)c1ccc(O)c(C(N)=O)c1 (configuration not stated) [LABETALOL] :: 142.6
CC[C@@H](CO)NCCN[C@@H](CC)CO [ETHAMBUTOL] :: 141.8
CC(=O)Nc1ccc2c(c1)Cc1ccccc1-2 [2-ACETYLAMINOFLUORENE] :: 140.4
CC(C)Cc1ccc(C(C)C(=O)O)cc1 (configuration not stated) [IBUPROFEN] :: 140.6
CCN(CC)N=O [N-NITROSODIETHYLAMINE] :: 140.8

Turning to the following compound.
Sample CC(=O)N1CCN(c2ccc(OCC3COC(Cn4ccnc4)(c4ccc(Cl)cc4Cl)O3)cc2)CC1 (configuration not stated) [KETOCONAZOLE] — what was its Na? 141.2

###

Species: Rattus norvegicus
Experiment: Open TG-GATES - Regimen: Daily Repeat
Format: toxicity, organism-based, Sprague-Dawley
Parameters: regimen Daily Repeat, gender Male, age 6 weeks
Details: in vivo, po, 0 mg/kg, […], tissue Plasma, route gavage, dose level Control, time 28 day
Kindly state TC for each of the entries shown.
Answers are plain numbers, in mg/dL.

Batch of 2 compounds: report TC for each.
1. CC(CCc1ccccc1)NCC(O)c1ccc(O)c(C(N)=O)c1 (stereo not drawn)
2. CC(C)Cc1ccc(C(C)C(=O)O)cc1 (stereo not drawn)

1: 77.6; 2: 66.6

Okay, here is my list. What is TC for each of these?
1. CC(N)=O [ACETAMIDE]
2. CC[C@@H](CO)NCCN[C@@H](CC)CO
3. O=C(O)COc1nn(Cc2ccccc2)c2ccccc12
4. CC(=O)Nc1ccc2c(c1)Cc1ccccc1-2
5. CC(=O)N1CCN(c2ccc(OCC3COC(Cn4ccnc4)(c4ccc(Cl)cc4Cl)O3)cc2)CC1 (stereo not drawn)
6. CCN(CC)N=O

1: 60.2; 2: 72.8; 3: 71.2; 4: 69.8; 5: 66; 6: 72.4

###

I'd appreciate it if you could supply Cl values for the items below.
Species on record: Rattus norvegicus
Assay: Open TG-GATES - Regimen: Daily Repeat
Type: toxicity, organism-based, Sprague-Dawley
Parameters: regimen Daily Repeat, gender Male, age 6 weeks
Conditions: in vivo, po, 0 mg/kg, […], tissue Plasma, route gavage, dose level Control, time 28 day
Answers are plain numbers, in meq/L.

CC[C@@H](CO)NCCN[C@@H](CC)CO :: 105.8
CCN(CC)N=O :: 103
O=C(O)COc1nn(Cc2ccccc2)c2ccccc12 :: 104.8
CC(N)=O [ACETAMIDE] :: 103.9
CC(=O)N1CCN(c2ccc(OCC3COC(Cn4ccnc4)(c4ccc(Cl)cc4Cl)O3)cc2)CC1 (stereo unspecified) :: 106.8

Please examine the following record next.
Entry under review: CC(=O)Nc1ccc2c(c1)Cc1ccccc1-2 . Reported Cl? 102.4

###

Assign KIDNEY_L to each entry below.
Species: Rattus norvegicus
Assay: Open TG-GATES - Regimen: Daily Repeat
Format: toxicity, organism-based, Sprague-Dawley
Parameters: regimen Daily Repeat, gender Male, age 6 weeks
Settings: in vivo, po, 0 mg/kg, […], tissue Kidney, route gavage, dose level Control, time 28 day

Answered cases to consult:
CCN(CC)N=O :: 1.3 g
O=C(O)COc1nn(Cc2ccccc2)c2ccccc12 :: 1.4 g
CC(C)Cc1ccc(C(C)C(=O)O)cc1 (stereo not drawn) :: 1.3 g
CC(=O)N1CCN(c2ccc(OCC3COC(Cn4ccnc4)(c4ccc(Cl)cc4Cl)O3)cc2)CC1 (stereo not drawn) :: 1.3 g
CC(CCc1ccccc1)NCC(O)c1ccc(O)c(C(N)=O)c1 (stereo not drawn) :: 1.4 g

State recorded KIDNEY_L for all listed compounds.
1. CC(N)=O [ACETAMIDE]
2. CC(=O)Nc1ccc2c(c1)Cc1ccccc1-2

1. 1.4 g
2. 1.5 g

State the recorded KIDNEY_L for this entry: CC[C@@H](CO)NCCN[C@@H](CC)CO 1.4 g

###

Species: Rattus norvegicus
Experiment: Open TG-GATES - Regimen: Single
Format: toxicity, organism-based, Sprague-Dawley
Design: regimen Single, gender Male, age 6 weeks
Conditions: in vivo, po, 0 mg/kg, 3 h, tissue Plasma, route gavage, dose level Control
metric: TC (mg/dL)
Give bare numbers, in mg/dL.

Here's what some known entries look like.
CC(=O)N1CCN(c2ccc(OCC3COC(Cn4ccnc4)(c4ccc(Cl)cc4Cl)O3)cc2)CC1 (configuration not stated) :: 74.8
CC(CCc1ccccc1)NCC(O)c1ccc(O)c(C(N)=O)c1 (configuration not stated) :: 83
CC(=O)Nc1ccc2c(c1)Cc1ccccc1-2 :: 77.8
O=C(O)COc1nn(Cc2ccccc2)c2ccccc12 :: 81
CCN(CC)N=O :: 79.4

Report TC for every entry below.
1. CC(C)Cc1ccc(C(C)C(=O)O)cc1 (configuration not stated)
2. CC[C@@H](CO)NCCN[C@@H](CC)CO

1: 72.6; 2: 75.6

###

Species on record: Rattus norvegicus
Assay: Open TG-GATES - Regimen: Daily Repeat
Format: toxicity, organism-based, Sprague-Dawley
Design: regimen Daily Repeat, gender Male, age 6 weeks
Details: in vivo, po, 0 mg/kg, […], tissue Plasma, route gavage, dose level Control, time 7 day
Kindly supply the reported LDH values for the records listed here.

Field: example entries. Status: answers known.
CC(=O)Nc1ccc2c(c1)Cc1ccccc1-2 :: 188 IU/L
CC(N)=O [ACETAMIDE] :: 164.6 IU/L
CC[C@@H](CO)NCCN[C@@H](CC)CO :: 200.2 IU/L
O=C(O)COc1nn(Cc2ccccc2)c2ccccc12 :: 84.8 IU/L
CC(=O)N1CCN(c2ccc(OCC3COC(Cn4ccnc4)(c4ccc(Cl)cc4Cl)O3)cc2)CC1 (stereo not drawn) :: 176.2 IU/L
CC(C)Cc1ccc(C(C)C(=O)O)cc1 (stereo not drawn) :: 170.2 IU/L

Lab note: each molecule below needs its LDH filled in.
1. CC(CCc1ccccc1)NCC(O)c1ccc(O)c(C(N)=O)c1 (stereo not drawn)
2. CCN(CC)N=O

64.6 IU/L
190 IU/L

###

Species: Rattus norvegicus
Test: Open TG-GATES - Regimen: Single
Assay type: toxicity, organism-based, Sprague-Dawley
Set-up: regimen Single, gender Male, age 6 weeks
Details: in vivo, po, 0 mg/kg, 6 h, tissue Blood, route gavage, dose level Control
Each record is given true if its reported Ret is strictly below 8%. Records at or above 8% are given false.

Look over these answered cases.
O=C(O)COc1nn(Cc2ccccc2)c2ccccc12 :: false
CC(=O)N1CCN(c2ccc(OCC3COC(Cn4ccnc4)(c4ccc(Cl)cc4Cl)O3)cc2)CC1 (configuration not stated) :: false
CC(CCc1ccccc1)NCC(O)c1ccc(O)c(C(N)=O)c1 (configuration not stated) :: false

Given the entry CCN(CC)N=O , would its reported Ret be below 8%? true

Please check: Ret for CC[C@@H](CO)NCCN[C@@H](CC)CO , strictly under 8% or not? true

Say whether its Ret is strictly beneath 8%. Entry: CC(=O)Nc1ccc2c(c1)Cc1ccccc1-2 true

###

For each of the compounds below, state its APTT.
Species: Rattus norvegicus
Assay: Open TG-GATES - Regimen: Single
Assay type: toxicity, organism-based, Sprague-Dawley
Design: regimen Single, gender Male, age 6 weeks
Details: in vivo, po, 0 mg/kg, 6 h, tissue Blood, route gavage, dose level Control
Put your answer as a value accompanied by its unit after it.

CC[C@@H](CO)NCCN[C@@H](CC)CO :: 22.2 s
CC(=O)N1CCN(c2ccc(OCC3COC(Cn4ccnc4)(c4ccc(Cl)cc4Cl)O3)cc2)CC1 (stereo unspecified) :: 21.3 s
CC(=O)Nc1ccc2c(c1)Cc1ccccc1-2 :: 20.9 s
CC(CCc1ccccc1)NCC(O)c1ccc(O)c(C(N)=O)c1 (stereo unspecified) :: 16.4 s
CCN(CC)N=O :: 20.6 s

Look up APTT for this compound: O=C(O)COc1nn(Cc2ccccc2)c2ccccc12 17.5 s
